- TARGET OF ASSAY: RNA-editing ligase 1, mitochondrial (Trypanosoma brucei brucei)
- ASSAY PROCEDURE: T. brucei editing ligase REL1 blockade – biochemical, FRET fluorescence, triplicate, confirmation (AID 1117282);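 also: 0% = REL1 with substrate and DMSO and 100% = REL1 plus control inhibitor NSC42067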
- ASSAY CONTEXT: TbREL1 RNA ligation, at 9.66 µM, hits give high values
This is one part of the list.
Overview of recorded inhibition for various compounds
A number alone suffices; assume %.

Query :: Tell me the measured inhibition of COc1c(O)cc2oc(-c3ccc(O)c(O)c3)cc(=O)c2c1O , please.
Result :: 12.7

Query :: Similarly, Nc1ccc2nc3c(=O)[nH]c(=S)[nH]c3nc2c1 ?
Result :: 14.2

###

- TARGET OF ASSAY: RNA-editing ligase 1, mitochondrial (Trypanosoma brucei brucei)
- ASSAY PROCEDURE: T. brucei editing ligase REL1 blockade – biochemical, FRET fluorescence, triplicate, confirmation (AID 1117282);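 also: 0% = REL1 with substrate and DMSO and 100% = REL1 plus control inhibitor NSC42067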
- ASSAY CONTEXT: TbREL1 RNA ligation, at 9.66 µM
The other results are listed elsewhere or left out. The source made the active and inactive calls.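 How the source made its calls: active means mean inhibition across replicates above a set limit taken from the earlier primary screen (cut at about 11% in these data); inactive means the rest.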
Field 'call' accepts active, inactive

Query :: Give the logged outcome of this assay for the following compound: CC[C@@H](C)[C@@H]1CN([C@@H](C)CN2CCC[C@H]2CN2C(N)=NC[C@H]2C(C)C)C(=N)N1CCc1ccc(Cl)c(Cl)c1
Result :: active

Query :: Similarly, COCc1c(N)c(C)nc(Cl)c1C#N ?
Result :: inactive

Query :: Similarly, O=C(Nc1nc(-c2ccco2)c(-c2ccco2)s1)c1ccco1 ?
Result :: inactive

Query :: Similarly, CN1CCN(/N=C2/C(=O)Nc3ccc([N+](=O)[O-])cc32)CC1 ?
Result :: inactive

###

- TARGET OF ASSAY: RNA-editing ligase 1, mitochondrial (Trypanosoma brucei brucei)
- ASSAY PROCEDURE: T. brucei editing ligase REL1 blockade – biochemical, FRET fluorescence, triplicate, confirmation (AID 1117282);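 also: 0% = REL1 with substrate and DMSO and 100% = REL1 plus control inhibitor NSC42067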
- ASSAY CONTEXT: TbREL1 RNA ligation, at 9.66 µM, hits give high values
The list shows a part of the results.
METRIC: inhibition (%)
A number alone suffices; assume %.

Query :: Tell me the measured inhibition of O=C(Nc1cccc(F)c1)NC1CCCCCCC1 , please.
Result :: 4.12

Query :: Similarly, COc1ccc(C(C(=O)Nc2c(C)cccc2C)N2CCN(c3ccc(C)cc3)CC2)cc1 (centres undefined) ?
Result :: -1.79

Query :: Similarly, Cc1nnsc1C(=O)Nc1cccc(Cl)c1C ?
Result :: 2.09

Others:
Query :: Tell me the measured inhibition of CCCCCn1c(=O)[nH]c2cc(C(=O)NCCCN3CCCCC3C)ccc2c1=O (centres undefined) , please.
Result :: 7.94

Data origin: PubChem BioAssay AID1117282
